Reference source: ChEMBL document CHEMBL1681694

- Test system: MCF7
- assayInfo: Cytotoxicity against human MCF7 cells after 2 days by MTT assay
- Type: functional, cell-based
- experimentalSetup: MCF7, 48 h
experimentalReadout: IC50 (µM)
Give the value, in units of µM, as a plain number.

Take a look at these entries with their results.
molecule: C=C(CC)C(=O)c1ccc(OCC(=O)NCCCCN)c(Cl)c1Cl
IC50 / µM: 8

molecule: Cc1ccc(C)c(OCCCC(C)(C)C(=O)NCCCCNC(=O)CCC(=O)c2ccc(-c3ccccc3)cc2)c1
IC50 / µM: 2

Look up IC50 for this molecule: C=C(CC)C(=O)c1ccc(OCC(=O)NCCCCNC(=O)CCC(=O)c2ccc(-c3ccccc3)cc2)c(Cl)c1Cl 5

Look up IC50 for this molecule: NCCCCNC(=O)CCC(=O)c1ccc(-c2ccccc2)cc1 87

Look up IC50 for this molecule: CCCCC(CC)C(=O)NCCCCNC(=O)CCC(=O)c1ccc(-c2ccccc2)cc1 (stereo unspecified) 1

----------
- Tested on: A549
- assayInfo: Cytotoxicity against human A549 cells after 2 days by MTT assay
- Type: functional, cell-based
- experimentalSetup: A549, 48 h
experimentalReadout: IC50 (µM)
Give the value, in units of µM, as a plain number.

Take a look at these entries with their results.
compound: CCCCC(CC)C(=O)NCCCCNC(=O)CCC(=O)c1ccc(-c2ccccc2)cc1 (stereo unspecified)
IC50 (µM): 17
//
compound: Cc1ccc(C)c(OCCCC(C)(C)C(=O)NCCCCNC(=O)CCC(=O)c2ccc(-c3ccccc3)cc2)c1
IC50 (µM): 9
//
compound: C=C(CC)C(=O)c1ccc(OCC(=O)NCCCCN)c(Cl)c1Cl
IC50 (µM): 18

Look up IC50 for this compound: C=C(CC)C(=O)c1ccc(OCC(=O)NCCCCNC(=O)CCC(=O)c2ccc(-c3ccccc3)cc2)c(Cl)c1Cl 19

Look up IC50 for this compound: NCCCCNC(=O)CCC(=O)c1ccc(-c2ccccc2)cc1 100
